# Test system: M19-MEL
# assay.notes: NCI tumour cell line growth inhibition, 48 h
Activity calls are given as the source filed them. Rule as the data show it: active = GI50 up to about 1.1 µM and inactive = higher. Non-standard residues stand in square brackets, D forms with d. Residues, ends and D or L forms follow the SMILES beside them. *: point of attachment. NMeF = CN[CH](Cc1ccccc1)C(=O)O; NMeV = CN[CH](C(=O)O)C(C)C; Boc = CC(C)(C)OC(=O)*
Your reply should match one of these outcome classes. 1 (active), 0 (inactive)

Query: Test call, this compound: O=C(O)c1ccc(NC(=O)C2C(=O)C(=O)N(c3ccc(C(=O)O)cc3)C2=O)cc1 (stereo not drawn)
Result: 0

Query: Test call, this compound: CC(C)C(NC(=O)OC(C)(C)C)C(=O)N(C)C(Cc1ccccc1)C(=O)N(C)C(C(=O)N(C)C(C(=O)O)C(C)C)C(C)C (stereo not drawn) (Boc-V[NMeF][NMeV][NMeV]-OH; configuration not given here)
Result: 0

Query: Test call, this compound: Cc1cc(C)[n+](CCOc2ccc(/C(=C(/Cl)c3ccccc3)c3ccccc3)cc2)c(C)c1.[O-][Cl+3]([O-])([O-])[O-]
Result: 1

Query: Test call, this compound: O=C(CC(=O)C1CCOC1=O)C(=O)Nc1cccc(Cl)c1 (stereo not drawn)
Result: 0

Query: Test call, this compound: NCCCNCCSSC/C=C\CSSCCNCCCN
Result: 0

###

Assign GI50 to each entry below.
# Test system: EKVX
# assay.notes: NCI tumour cell line growth inhibition, 48 h
Calls of active or inactive are those of the source. No stated cut-off is given here; in the data, active = GI50 up to about 1.1 µM and inactive = higher.

# example entries with known answers
C[N+](C)(CCCCCC[N+](C)(C)CCCN1C(=O)c2cccc3cccc(c23)C1=O)CCCN1C(=O)c2cccc3cccc(c23)C1=O; > 100 µM (inactive)
Nc1ccc(S(=O)(=O)Nc2cnc3c(Cl)cccc3n2)cc1; 222 µM (inactive)
CC/C(=N/O)c1ccc(Br)s1; 5.61 µM (inactive)
NCCCNCCSSC/C=C\CSSCCNCCCN; > 100 µM (inactive)
Cc1nnc(N/N=C2/C(=O)Nc3c(Cl)cc(Cl)cc32)n1N; > 100 µM (inactive)

Batch request: GI50 for each of the following compounds.
1. CCOC(=O)c1[nH]cc(C)c1-c1ccn(-c2ccccc2)c1
2. COc1ccc2ccccc2c1C1=NC(C)(C)CO1
3. COC(=O)C[C@H](CCSC)NC(=O)C[C@H](CCSC)NC(=O)C[C@H](CCSC)NC(=O)OC(C)(C)C
4. OC1(c2ccccc2)CC2CCC(C1)N2CCCC1(c2ccc(F)cc2)OCCO1 (stereo not given)

Result:
1: 27 µM (inactive); 2: > 100 µM (inactive); 3: 34.8 µM (inactive); 4: > 100 µM (inactive)

Query: Give EKVX GI50 for C/C(=N\Nc1ccc([N+](=O)[O-])cc1)C(=O)N(C)Nc1ccccc1
Result: 34.5 µM (inactive)

###

Assign GI50 to each entry below.
# Test system: SK-OV-3
# assay.notes: NCI tumour cell line growth inhibition, 48 h
Calls of active or inactive are those of the source. Rule as the data show it: active = GI50 up to about 1.1 µM and inactive = higher.

# example entries with known answers
NC(=S)N/N=C1\CCCC\C1=C/c1ccccc1; > 100 µM (inactive)
O=C(Nc1ccc(Cl)c(Cl)c1)N1N=C2c3ccccc3CCC2C1c1ccc(Cl)cc1 (configuration not stated); > 100 µM (inactive)
COc1ccc(CCC2c3cc(OC)c(OC)cc3CCN2C)cc1OC (configuration not stated); > 100 µM (inactive)
Cc1nc(O)nc2nc3ccc(Cl)cc3c(NCCNCCO)c12; 11.4 µM (inactive)
Oc1ccc(Br)cc1/C=N/c1cccc(C(F)(F)F)c1; 45.7 µM (inactive)
Nc1ccc(S(=O)(=O)Nc2cnc3c(Cl)cccc3n2)cc1; > 33 µM (inactive)
Cn1c(=O)n2c(=O)n(C)c(=O)n2c1=O; > 100 µM (inactive)
C1CCNCC1.CN(C)c1ccc(/C=C2/NC(=S)NC2=O)cc1; 69.3 µM (inactive)

Batch request: GI50 for each of the following compounds.
1. O=C(NCCN1CCCC1)c1cn2c(ccc3sc4ccccc4c(=O)c32)n1
2. Fc1cccc(F)c1C1SCC2=Nc3ccccc3CN21 (configuration not stated)
3. O=C1CC(n2ccnc2)c2c(Cl)sc(Cl)c21 (configuration not stated)
4. COc1ccc(-c2cc(-c3ccncc3)nc(N)c2-c2ccc(F)cc2)cc1

Result:
1: 16.3 µM (inactive); 2: 36.8 µM (inactive); 3: 23.1 µM (inactive); 4: 95.9 µM (inactive)

###

# System: MOLT-4
# assay.notes: NCI tumour cell line growth inhibition, 48 h
Active and inactive are the calls of the source. Rule as the data show it: active = GI50 up to about 1.1 µM and inactive = higher.
Your reply should match one of these outcome classes. active, inactive

Past entries and their recorded results:
COc1cc(C2SCC(=O)N2c2ccc(Cl)c(Cl)c2)cc(OC)c1OC (stereo not drawn); inactive
NC(=O)c1ccc(Cl)c([N+](=O)[O-])c1; inactive
CC(=O)OC1COC(N2C(=O)C(=O)c3cc(Br)ccc32)C(OC(C)=O)C1OC(C)=O (stereo not drawn); inactive
Nc1nc(O)nc2c1ncn2C1OC(CO)C(O)C1O (stereo not drawn); inactive
CCOC(=O)Oc1cc2c(ccn2C)c2c1c1ccccc1n2C(=O)OCC; inactive

Query: Test call, this compound: CC1CC[C@@]23CCC4(C)[C@@](C=CC5[C@@]6(C)CCC(=O)C(C)(C)C6CC[C@]54C)(OC2=O)[C@@H]3[C@H]1C (stereo partly drawn)
Result: inactive

Query: Test call, this compound: CNC1=C(C)C(=O)C(O)=C([C@H](C)CCC=C(C)C)C1=O
Result: inactive

Query: Test call, this compound: C=C1C(=O)O[C@@H]2C[C@@H](C)[C@@H]3C=CC(=O)[C@@]3(C)[C@@H](OC(=O)CC(=O)O[C@H]3[C@@H]4C(=C)C(=O)O[C@@H]4C[C@@H](C)[C@@H]4C=CC(=O)[C@]43C)[C@H]12
Result: active

Query: Test call, this compound: COC1(OC)CCCCC2c3cccc(OC(C)=O)c3C21OC(C)=O (stereo not drawn)
Result: inactive

Query: Test call, this compound: O=C(Nc1ccccc1)c1cc(S(=O)(=O)n2ccnc2O)c(S)cc1Cl
Result: inactive

Query: Test call, this compound: COC(=O)C1=C(C)C(=O)[C@]23C(CCCC[C@H]12)C(=O)[C@H](C(=O)OC)C3C (stereo partly drawn)
Result: inactive

Query: Test call, this compound: CC(=O)Oc1c(N2CCCCC2)c(C(=O)c2ccccc2)c(O)c2ccn(N(C)C)c12
Result: active

###

# Tested on: MDA-MB-435
# assay.notes: NCI tumour cell line growth inhibition, 48 h
The source made the active and inactive calls. Rule as the data show it: active = GI50 up to about 1.1 µM and inactive = higher.
measured.parameter: GI50

# example entries with known answers
COc1ccc(-c2cc(-c3ccncc3)nc(N)c2-c2ccc(F)cc2)cc1; 21.2 µM (inactive)
C[C@H]1[C@H](C)N1CC(O)Cn1ccnc1[N+](=O)[O-] (stereo not given in full); > 100 µM (inactive)
Cn1c(=O)c2c(O)cc(N)nc2n(C)c1=O; > 100 µM (inactive)
CCOC(=O)NC(Nc1ccc(S(=O)(=O)Nc2ccc(OC)nn2)cc1)(C(F)(F)F)C(F)(F)F; 14.5 µM (inactive)
O=[N+]([O-])c1ccc(/C=N\N=c2/ccc([N+](=O)[O-])c[nH]2)cc1; > 100 µM (inactive)

Batch request: GI50 for each of the following molecules.
1. CSc1nc(SC)c2c(C)c(Br)[nH]c2n1
2. Clc1ccc(-c2nn3c(CCCCCCCCc4nnc5sc(-c6ccc(Cl)cc6)nn45)nnc3s2)cc1
3. Cc1ccc(C(=O)Oc2ccc(/C=C3\CCC/C(=C\c4ccc(OC(=O)c5ccc(C)cc5)cc4)C3=O)cc2)cc1

Result:
1. > 100 µM (inactive)
2. 17 µM (inactive)
3. > 100 µM (inactive)

Batch request: GI50 for each of the following molecules.
1. NC(=O)SCC(=O)Nc1ccc2cccc3c2c1CC3
2. COc1cccc(/C=C\c2ccnc3ccccc23)c1

Result:
17.4 µM (inactive)
> 10 µM (inactive)

###

# Tested on: EKVX
# assay.notes: NCI tumour cell line growth inhibition, 48 h
The source made the active and inactive calls. Cut-off read from the data, not from the text of the source: active = GI50 up to about 1.1 µM and inactive = higher.
Assign GI50 to each entry below.

# example entries with known answers
CCOC(=O)Oc1cc2c(ccn2C)c2c1c1ccccc1n2C(=O)OCC; > 100 µM (inactive)
COC(=O)/C(C#N)=C/c1cc(C(C)(C)C)c(O)c(C(C)(C)C)c1; 2.33 µM (inactive)
C[C@@H]1C[C@@H](O)[C@@]2(O)C13CC(=O)OC(C3)[C@@H](C)[C@@]2(C)CO (stereo not given in full); > 100 µM (inactive)
O=C(CCO)OCCCCCC/C=C\CCCCCC/C=C\CCCCCCCCOC(=O)CCO; 18.3 µM (inactive)

# next compound below
Query: I would be grateful if you could share the reported GI50 for CCOC(=O)CCC(NC(=O)c1ccc(/N=C/c2nc3cc(C(F)(F)F)ccc3nc2-c2ccccc2)cc1)C(=O)OCC (stereo not given) .
Result: 28.9 µM (inactive)

Entry source: ChEMBL document CHEMBL1201862
